# system_under_test: recombinant human NK1 receptors (Homo sapiens, UniProt P25103)
# Sequence (P25103 whole entry): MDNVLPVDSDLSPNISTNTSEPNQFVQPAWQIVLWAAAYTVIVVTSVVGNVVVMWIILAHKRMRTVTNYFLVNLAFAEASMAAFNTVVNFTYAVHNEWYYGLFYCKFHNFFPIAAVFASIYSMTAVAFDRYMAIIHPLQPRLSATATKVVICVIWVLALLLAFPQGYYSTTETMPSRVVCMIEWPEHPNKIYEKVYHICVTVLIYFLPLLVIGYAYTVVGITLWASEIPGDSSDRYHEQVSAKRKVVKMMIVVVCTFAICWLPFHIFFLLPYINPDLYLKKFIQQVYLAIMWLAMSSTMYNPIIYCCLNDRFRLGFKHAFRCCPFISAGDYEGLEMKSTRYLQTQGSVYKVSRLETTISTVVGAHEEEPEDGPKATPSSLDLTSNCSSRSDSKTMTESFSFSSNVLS
# measurement_notes: NK1-receptor binding affinity, displacement of [3H]-substance P
# protocol_conditions: negative logarithm of Ki; displacement of [3H]-substance P from recombinant human NK1 receptors in CHO cell membranes; average of at least two determinations
# Method: NK1-receptor binding affinity has been determined in vitro by the compounds' ability to displace [3H]-substance P (SP) from recombinant human NK1 receptors expressed in Chinese Hamster Ovary (CHO) cell membranes. CHO cell membranes were prepared by using a modification of the method described by Dam T and Quirion R (Peptides, 7: 855–864, 1986). […] Non-specific binding was determined using excess of Substance P (1 μM) and represents about 6% of the total binding. […]
Structures can show the parent of a compound that is named as a salt.
# reported Ki; entries follow
Provide only the numeric value, understood in nM.

compound: Cc1cc(F)ccc1[C@H]1CCN(C)CCN1C(=O)N(C)Cc1cc(C(F)(F)F)cc(C(F)(F)F)c1 [Example 14, hydrochloride]
unit_abbrev: nM
Ki: 0.0562

compound: Cc1cc(F)ccc1[C@H]1CCNCCN1C(=O)N(C)[C@H](C)c1cc(C(F)(F)F)cc(C(F)(F)F)c1 [Example 4, hydrochloride]
unit_abbrev: nM
Ki: 0.0195

compound: Cc1cc(F)ccc1[C@H]1CCNCCN1C(=O)N(C)Cc1cc(C(F)(F)F)cc(C(F)(F)F)c1 [Example 2, hydrochloride]
unit_abbrev: nM
Ki: 0.0724

compound: Cc1cc(F)ccc1[C@H]1CNCCCN1C(=O)N(C)Cc1cc(C(F)(F)F)cc(C(F)(F)F)c1 [Example 1, hydrochloride]
unit_abbrev: nM
Ki: 0.0347

compound: Cc1cc(F)ccc1[C@H]1CNCCCN1C(=O)N(C)Cc1cc(Cl)cc(Cl)c1 [Example 5, hydrochloride]
unit_abbrev: nM
Ki: 0.0661

Return value of Ki for input CN(Cc1cc(C(F)(F)F)cc(C(F)(F)F)c1)C(=O)N1CCCNC[C@@H]1c1ccc(F)cc1 [Example 12a, hydrochloride] , no commentary. 0.501

---

# reported pKi; entries follow
# system_under_test: recombinant human NK1 receptors (Homo sapiens, UniProt P25103)
# measurement_notes: NK1-receptor binding affinity, displacement of [3H]-substance P
# protocol_conditions: negative logarithm of Ki; displacement of [3H]-substance P from recombinant human NK1 receptors in CHO cell membranes; average of at least two determinations
Counter-ions that a name gives are not always drawn.
By convention, pKi is the negative base-10 log of a molar concentration.

Below: 3 molecules and their reported pKi.
molecule: Cc1cc(F)ccc1[C@H]1CCN(C)CCN1C(=O)N(C)[C@H](C)c1cc(C(F)(F)F)cc(C(F)(F)F)c1 [Example 15, hydrochloride]
observed_result: 10.51
//
molecule: Cc1cc(F)ccc1[C@H]1CNCCCN1C(=O)N(C)[C@H](C)c1cc(C(F)(F)F)cc(C(F)(F)F)c1 [Example 3, hydrochloride]
observed_result: 10.61
//
molecule: Cc1cc(F)ccc1[C@H]1CCN(C)CCN1C(=O)N(C)Cc1cc(Cl)cc(Cl)c1 [Example 13, hydrochloride]
observed_result: 9.53

Return value of pKi for input Cc1cc(F)ccc1[C@H]1CCNCCN1C(=O)N(C)[C@@H](C)c1cc(C(F)(F)F)cc(C(F)(F)F)c1 [Example 8, hydrochloride] , no commentary. 10.34

Return value of pKi for input Cc1cc(F)ccc1[C@H]1CNCCCN1C(=O)N(C)[C@@H](C)c1cc(C(F)(F)F)cc(C(F)(F)F)c1 [Example 7, hydrochloride] , no commentary. 10.32

Return value of pKi for input Cc1cc(F)ccc1[C@H]1CCNCCN1C(=O)N(C)Cc1cc(Cl)cc(Cl)c1 [Example 6, hydrochloride] , no commentary. 10.01

FYI, the data here is from patent US7196077B2.
